koff values by entry
target: T1, human LAP-TGFB1 Fc fusion (human); test: SPR pH 6.0, antigen captured on Fab 54BLH
T1 construct: also called human LAP-TGFβ1-Fc; human LAP-TGFβ-Fc isoform 1
T1 sequence (chain, as listed by the source limits assumed): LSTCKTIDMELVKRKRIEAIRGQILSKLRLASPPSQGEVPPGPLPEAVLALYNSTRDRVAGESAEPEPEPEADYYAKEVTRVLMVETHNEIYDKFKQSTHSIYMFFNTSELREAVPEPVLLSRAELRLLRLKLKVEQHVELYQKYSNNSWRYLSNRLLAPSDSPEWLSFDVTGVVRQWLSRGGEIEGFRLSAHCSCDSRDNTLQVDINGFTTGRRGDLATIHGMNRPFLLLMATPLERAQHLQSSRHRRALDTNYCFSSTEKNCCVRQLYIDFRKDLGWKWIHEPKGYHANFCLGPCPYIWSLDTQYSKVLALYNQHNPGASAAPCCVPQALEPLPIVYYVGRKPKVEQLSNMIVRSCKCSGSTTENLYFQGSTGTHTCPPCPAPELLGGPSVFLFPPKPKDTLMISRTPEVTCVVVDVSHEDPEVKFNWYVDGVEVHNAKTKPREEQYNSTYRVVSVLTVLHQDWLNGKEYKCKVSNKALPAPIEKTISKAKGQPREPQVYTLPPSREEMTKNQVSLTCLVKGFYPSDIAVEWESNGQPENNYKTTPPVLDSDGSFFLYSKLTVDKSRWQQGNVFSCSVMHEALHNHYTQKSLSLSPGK
Give your result in s⁻¹ as a bare value.

12BLM (antibody, human IgG1, kappa, L234A L235A, V domains shown, IgG1 L234A L235A D265S/kappa; also called 75BLH; 48BMD) VH: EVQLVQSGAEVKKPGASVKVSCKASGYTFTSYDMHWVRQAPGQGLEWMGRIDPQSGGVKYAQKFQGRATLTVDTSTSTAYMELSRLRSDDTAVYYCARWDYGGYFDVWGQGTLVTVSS VL: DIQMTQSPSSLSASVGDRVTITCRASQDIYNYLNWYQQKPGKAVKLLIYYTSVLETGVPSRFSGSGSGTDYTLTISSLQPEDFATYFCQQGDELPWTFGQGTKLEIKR ... 0.000936
55BLH (Fab, V domains shown, also called 07BLM Fab) VH: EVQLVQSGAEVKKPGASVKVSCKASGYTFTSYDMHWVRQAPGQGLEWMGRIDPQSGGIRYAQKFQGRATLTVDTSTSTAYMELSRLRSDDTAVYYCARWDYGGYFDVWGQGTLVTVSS VL: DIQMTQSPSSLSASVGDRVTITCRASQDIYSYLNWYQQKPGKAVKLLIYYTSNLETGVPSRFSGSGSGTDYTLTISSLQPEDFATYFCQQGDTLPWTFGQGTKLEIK ... 0.00248

Now for another entry.
# lookup: koff of 60BLH (Fab, V domains shown, also called 12BLM Fab) VH: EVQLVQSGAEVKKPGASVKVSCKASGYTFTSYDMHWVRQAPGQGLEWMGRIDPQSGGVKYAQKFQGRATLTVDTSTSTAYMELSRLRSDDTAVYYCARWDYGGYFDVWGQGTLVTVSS VL: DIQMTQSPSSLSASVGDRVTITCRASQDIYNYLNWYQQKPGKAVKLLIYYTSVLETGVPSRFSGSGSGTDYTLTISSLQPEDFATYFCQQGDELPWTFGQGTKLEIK
0.00167
